Target: T1, HvRPA3 full length (Haloferax volcanii DS2 (wild-type), UniProt D4GZS1 1-311)
T1 sequence: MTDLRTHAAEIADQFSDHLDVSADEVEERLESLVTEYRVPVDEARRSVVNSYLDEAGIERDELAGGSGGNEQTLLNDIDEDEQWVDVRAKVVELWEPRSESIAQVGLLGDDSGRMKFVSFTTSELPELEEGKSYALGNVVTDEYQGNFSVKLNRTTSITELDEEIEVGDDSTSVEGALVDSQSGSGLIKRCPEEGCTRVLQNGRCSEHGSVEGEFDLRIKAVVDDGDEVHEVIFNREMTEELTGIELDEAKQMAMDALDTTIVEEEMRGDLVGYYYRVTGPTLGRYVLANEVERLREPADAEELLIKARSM
Experiment: fluorescence anisotropy; 1 M KCl; Hill 0.9 ± 0.1; monomer equivalents; FA: 50 mM HEPES pH 7.0, 10% glycerol, 0.03% BSA, 20 nM Cy5-oligo, 0.2, 1 or 3 M KCl, room temperature 10 min; SEC: 50 mM HEPES pH 7.0, 0.2, 1 or 3 M KCl; EMSA:
Details: protein: recombinant; tags: N-terminal 6xHis; label: 5' Cy5; single strand
MEASURED ATTRIBUTE: Kd
Output should be the measured figure followed by the unit it is expressed in.

Kd reported for this binder GCGTGTGTGGTGGTGTGC (ssDNA) [Cy5-18mer ssDNA (FA)] : 53.9 nM
